Sourced from ChEMBL document CHEMBL5143510

Test: Cytotoxicity against human HLF cells assessed as reduction in cell viability incubated for 48 hrs by MTT assay
Format: toxicity, cell-based
Observable: IC50 at 48 h (nM)
Your answer is read as nM, so omit the unit and give the number.

// query Name the recorded IC50 at 48 h for `COc1ccc2c(/C=C(\C)C(=O)c3cc(OC)c(OC)c([Se]C)c3)c[nH]c2c1` .
// result 2370

====

Test: Cytotoxicity against human L02 cells assessed as reduction in cell viability incubated for 48 hrs by MTT assay
Format: toxicity, cell-based
Observable: IC50 at 48 h (nM)
Your answer is read as nM, so omit the unit and give the number.

// query Name the recorded IC50 at 48 h for `COc1ccc2c(/C=C(\C)C(=O)c3cc(OC)c(OC)c([Se]C)c3)c[nH]c2c1` .
// result 398

====

Please go through the items and note down their pIC50.
Assay: Antiproliferative activity against vincristine resistant human HCT-8/VCR cells assessed as reduction in cell viability incubated for 48 hrs by MTT assay
Assay type: functional, cell-based
The meaning of pIC50 here: minus log10 of the concentration in molar units.

// query Name the recorded pIC50 for `CC[C@]1(O)C[C@H]2CN(CCc3c([nH]c4ccccc34)[C@@](C(=O)OC)(c3cc4c(cc3OC)N(C=O)[C@H]3[C@@](O)(C(=O)OC)[C@H](OC(C)=O)[C@]5(CC)C=CCN6CC[C@]43[C@@H]65)C2)C1` .
// result 4.99

// query Name the recorded pIC50 for `COc1ccc2c(/C=C(\C)C(=O)c3cc(OC)c(OC)c([Se]C)c3)c[nH]c2c1` .
// result 7.35

====

System: HCT-8
Test: Antiproliferative activity against human HCT-8 cells assessed as reduction in cell viability incubated for 48 hrs by MTT assay
Type: functional, cell-based
Details: HCT-8, 48 h
Observable: IC50 (µM)
Your answer is read as µM, so omit the unit and give the number.

// query Name the recorded IC50 for `COc1ccc2c(/C=C/C(=O)c3cc(OC)c(OC)c([Se]C)c3)c[nH]c2c1` .
// result 0.078

// query Name the recorded IC50 for `CC[C@]1(O)C[C@H]2CN(CCc3c([nH]c4ccccc34)[C@@](C(=O)OC)(c3cc4c(cc3OC)N(C=O)[C@H]3[C@@](O)(C(=O)OC)[C@H](OC(C)=O)[C@]5(CC)C=CCN6CC[C@]43[C@@H]65)C2)C1` .
// result 0.217

// query Name the recorded IC50 for `COc1ccc2c(/C=C/C(=O)c3cc(OC)c(OC)c([N+](=O)[O-])c3)c[nH]c2c1` .
// result 0.982

// query Name the recorded IC50 for `COc1ccc2c(/C=C(\C)C(=O)c3cc(OC)c(OC)c([Se]C)c3)c[nH]c2c1` .
// result 0.029

// query Name the recorded IC50 for `COc1cc(C(=O)/C(C)=C/c2cn(C)c3ccccc23)cc([Se]C)c1OC` .
// result 0.048

// query Name the recorded IC50 for `COc1ccc2c(/C=C/C(=O)c3cc(OC)c(OC)c([N+](=O)[O-])c3)cn(C)c2c1` .
// result 0.753

// query Name the recorded IC50 for `COc1ccc2c(/C=C(\C)C(=O)c3cc(OC)c(OC)c([Se]C)c3)cn(C)c2c1` .
// result 0.025

// query Name the recorded IC50 for `COc1cc(C(=O)/C=C/c2cn(C)c3ccccc23)cc([N+](=O)[O-])c1OC` .
// result 1.66

// query Name the recorded IC50 for `COc1ccc2c(/C=C/C(=O)c3cc(OC)c(OC)c(SC)c3)c[nH]c2c1` .
// result 0.138
